Recorded values, source the supplement of paper PMC10567573.

B1: UFD1L (parent)
chain: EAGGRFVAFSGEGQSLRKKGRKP

# Variants of: B1
# experiment_description: protein stability index of a GFP-peptide fusion (GPS, HEK-293T) (PSI 1-6); higher = more stable;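 note: lentivirally expressed fusions sorted by FACS into six bins by GFP to DsRed ratio, PSI derived from sequencing read proportions per bin multiplied by bin number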
# measurement_context: c terminus: native
Label scheme for protein stability index: lower than 2 is -1, 2 and above is 1.

For orientation, consider the following solved cases.
G3M: 1
Q14D: -1
L16D: 1
G4H: 1
G13Q: -1

Exam item: Reported protein stability index reaches at least 2 for "K18I" ?
Marked response: 1

Exam item: Reported protein stability index reaches at least 2 for "R5A" ?
Marked response: 1

Exam item: Reported protein stability index reaches at least 2 for "R5S" ?
Marked response: 1

Exam item: Reported protein stability index reaches at least 2 for "V7G" ?
Marked response: -1

Exam item: Reported protein stability index reaches at least 2 for "Q14S" ?
Marked response: 1

Exam item: Reported protein stability index reaches at least 2 for "R21A" ?
Marked response: 1

Exam item: Reported protein stability index reaches at least 2 for "L16Q" ?
Marked response: 1

Exam item: Reported protein stability index reaches at least 2 for "G20K" ?
Marked response: 1
